Each entry below carries its reported inhibition of growth at 25 µM.
system: Trypanosoma cruzi; experiment: Antitrypanosomal activity against Trypanosoma cruzi Tulahuen 2 at 25 uM relative to nifurtimox; type: functional; settings: read-out: GI
Kindly provide the numeric value in % only, without the unit symbol.

Worked examples, 2 compounds total:
O=C(N/N=C/c1ccc(O)cc1)c1nc2ccccc2nc1-c1ccccc1    27
O=C(N/N=C/c1ccccc1)c1nc2ccccc2nc1-c1ccccc1    3

Challenge: Which inhibition of growth at 25 µM is listed for O=C(N/N=C/c1ccc(F)cc1)c1nc2ccccc2nc1-c1ccccc1 ?
Response given: 22

Challenge: Which inhibition of growth at 25 µM is listed for O=C(N/N=C/c1ccccc1O)c1nc2ccccc2nc1-c1ccccc1 ?
Response given: 96

Challenge: Which inhibition of growth at 25 µM is listed for O=C(N/N=C/c1cccc(Cl)c1)c1nc2ccccc2nc1-c1ccccc1 ?
Response given: 47

Challenge: Which inhibition of growth at 25 µM is listed for O=C(N/N=C/c1ccc(Br)cc1)c1nc2ccccc2nc1-c1ccccc1 ?
Response given: 40
